SYSTEM NAME: Macrophage-stimulating protein receptor (Homo sapiens)
Sequence (Q04912 25-304 limits assumed): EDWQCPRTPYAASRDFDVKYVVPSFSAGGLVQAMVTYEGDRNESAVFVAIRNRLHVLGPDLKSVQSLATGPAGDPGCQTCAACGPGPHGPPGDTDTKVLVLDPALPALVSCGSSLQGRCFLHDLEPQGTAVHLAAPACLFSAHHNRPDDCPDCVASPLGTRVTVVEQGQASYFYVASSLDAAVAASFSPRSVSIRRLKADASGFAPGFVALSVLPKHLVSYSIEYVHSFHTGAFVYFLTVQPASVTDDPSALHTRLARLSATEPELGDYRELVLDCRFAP
Sequence (Q04912 310-1400 limits assumed): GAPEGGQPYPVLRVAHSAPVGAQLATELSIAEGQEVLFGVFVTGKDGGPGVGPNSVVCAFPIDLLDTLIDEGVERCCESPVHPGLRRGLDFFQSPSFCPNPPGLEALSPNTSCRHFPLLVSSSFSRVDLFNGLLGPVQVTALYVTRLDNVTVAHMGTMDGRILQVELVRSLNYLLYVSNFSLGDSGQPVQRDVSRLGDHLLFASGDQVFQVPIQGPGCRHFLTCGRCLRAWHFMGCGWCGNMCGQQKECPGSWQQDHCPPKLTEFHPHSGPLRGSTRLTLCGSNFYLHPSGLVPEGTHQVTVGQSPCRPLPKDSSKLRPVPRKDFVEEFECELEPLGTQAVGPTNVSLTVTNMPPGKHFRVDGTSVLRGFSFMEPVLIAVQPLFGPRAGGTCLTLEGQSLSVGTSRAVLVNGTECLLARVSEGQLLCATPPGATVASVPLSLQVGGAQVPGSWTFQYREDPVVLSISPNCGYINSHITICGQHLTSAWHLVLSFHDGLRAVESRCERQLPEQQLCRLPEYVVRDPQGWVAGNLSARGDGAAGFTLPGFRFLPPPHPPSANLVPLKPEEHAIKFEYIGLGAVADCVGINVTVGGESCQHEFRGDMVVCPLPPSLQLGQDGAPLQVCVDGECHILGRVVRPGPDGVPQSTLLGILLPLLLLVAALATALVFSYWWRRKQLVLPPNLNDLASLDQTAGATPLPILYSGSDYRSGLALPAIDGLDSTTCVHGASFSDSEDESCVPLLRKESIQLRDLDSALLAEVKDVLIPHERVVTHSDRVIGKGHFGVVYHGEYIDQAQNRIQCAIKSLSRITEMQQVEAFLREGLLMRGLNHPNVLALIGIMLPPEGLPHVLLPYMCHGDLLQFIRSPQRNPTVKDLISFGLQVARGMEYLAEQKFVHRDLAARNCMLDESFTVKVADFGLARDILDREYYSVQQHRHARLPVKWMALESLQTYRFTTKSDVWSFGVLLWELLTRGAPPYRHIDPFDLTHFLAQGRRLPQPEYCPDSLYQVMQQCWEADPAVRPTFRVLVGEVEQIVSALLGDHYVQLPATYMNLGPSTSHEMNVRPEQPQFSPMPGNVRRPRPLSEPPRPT
TEST DETAILS: Inhibition of RON phosphorylation in human HT29 cells
Assay type: cell-based, HT-29
MEASURED ENDPOINT: IC50 (µM)

INSERT INTO measurements (entry_smiles, system_name, unit_spec, value_reported) VALUES
  ('Cn1cnc(-c2cc3nccc(Oc4ccc(NC(=O)c5cnn(-c6ccccc6)c5C(F)(F)F)cc4F)c3s2)c1', 'Macrophage-stimulating protein receptor (Homo sapiens)', 'µM', 0.03);

* * *

SYSTEM NAME: Hepatocyte growth factor receptor (Homo sapiens, UniProt P08581)
Sequence (P08581 whole entry): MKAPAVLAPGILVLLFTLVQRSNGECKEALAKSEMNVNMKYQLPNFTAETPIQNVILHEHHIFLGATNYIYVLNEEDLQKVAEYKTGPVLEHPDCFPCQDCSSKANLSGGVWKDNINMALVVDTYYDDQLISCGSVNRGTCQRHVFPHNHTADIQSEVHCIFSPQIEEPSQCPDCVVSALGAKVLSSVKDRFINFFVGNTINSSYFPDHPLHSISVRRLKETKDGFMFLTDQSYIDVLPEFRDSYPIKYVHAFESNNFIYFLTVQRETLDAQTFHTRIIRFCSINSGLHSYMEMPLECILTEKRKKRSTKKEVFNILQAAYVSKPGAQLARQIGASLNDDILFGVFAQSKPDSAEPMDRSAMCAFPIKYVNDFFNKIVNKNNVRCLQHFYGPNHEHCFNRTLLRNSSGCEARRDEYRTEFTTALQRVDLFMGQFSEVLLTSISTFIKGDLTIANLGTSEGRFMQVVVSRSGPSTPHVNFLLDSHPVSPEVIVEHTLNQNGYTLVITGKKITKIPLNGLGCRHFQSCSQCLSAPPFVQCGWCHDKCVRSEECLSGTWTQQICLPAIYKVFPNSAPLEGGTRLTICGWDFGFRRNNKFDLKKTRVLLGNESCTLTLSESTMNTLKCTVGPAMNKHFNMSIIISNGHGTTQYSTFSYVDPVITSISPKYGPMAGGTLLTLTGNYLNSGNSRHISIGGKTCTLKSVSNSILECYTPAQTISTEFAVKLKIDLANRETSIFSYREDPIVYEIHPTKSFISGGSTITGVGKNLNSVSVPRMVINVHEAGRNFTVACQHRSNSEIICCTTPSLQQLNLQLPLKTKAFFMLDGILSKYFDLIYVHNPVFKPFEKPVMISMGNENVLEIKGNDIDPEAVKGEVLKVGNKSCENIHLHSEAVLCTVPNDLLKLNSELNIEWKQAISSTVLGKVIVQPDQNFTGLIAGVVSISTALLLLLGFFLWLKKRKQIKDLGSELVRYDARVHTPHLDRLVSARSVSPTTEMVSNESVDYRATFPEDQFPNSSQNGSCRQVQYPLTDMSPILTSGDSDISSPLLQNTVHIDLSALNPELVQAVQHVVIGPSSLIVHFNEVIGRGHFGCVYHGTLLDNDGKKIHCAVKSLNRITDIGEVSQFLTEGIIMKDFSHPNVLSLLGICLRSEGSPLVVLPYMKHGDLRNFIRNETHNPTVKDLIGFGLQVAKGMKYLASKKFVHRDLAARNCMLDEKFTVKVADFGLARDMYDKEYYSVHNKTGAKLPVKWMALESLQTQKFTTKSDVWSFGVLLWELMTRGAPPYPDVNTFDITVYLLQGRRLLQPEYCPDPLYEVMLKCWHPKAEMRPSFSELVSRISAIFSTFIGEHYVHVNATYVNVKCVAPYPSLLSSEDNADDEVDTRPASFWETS
TEST DETAILS: Inhibition of phosphorylation of c-Met in human MKN45 cells
MEASURED ENDPOINT: IC50 (µM)

INSERT INTO assay_data (entry_smiles, system_name, unit_spec, value_reported) VALUES
  ('Cn1cnc(-c2cc3nccc(Oc4ccc(NC(=O)c5cnn(-c6ccccc6)c5C(F)(F)F)cc4F)c3s2)c1', 'Hepatocyte growth factor receptor (Homo sapiens, UniProt P08581)', 'µM', 6.87);

Source listed as ChEMBL document CHEMBL3580568.
